# Tested on: OVCAR-4
# experimental protocol: NCI tumour cell line growth inhibition, 48 h
Active and inactive are the calls of the source. Cut-off read from the data, not from the text of the source: active = GI50 up to about 1.1 µM and inactive = higher.
metric name: GI50

These solved cases illustrate the format of a correct answer.
molecule: Cn1c(=O)c2[nH]c(C3CC(=O)CC(c4nc5c([nH]4)c(=O)n(C)c(=O)n5C)N3)nc2n(C)c1=O (stereo unspecified)
target or test system: OVCAR-4
metric name: GI50
result: > 100 µM (inactive)
//
molecule: CCOC(OCC)c1ccc(/C=C/c2cc(OC)c(OC)c(OC)c2)cc1
target or test system: OVCAR-4
metric name: GI50
result: 22.3 µM (inactive)
//
molecule: CN(CC#N)C1CCCC[C@H]1O (stereo partly specified)
target or test system: OVCAR-4
metric name: GI50
result: > 100 µM (inactive)
//
molecule: CCCCCCCCCCCCCP(=O)(O)O
target or test system: OVCAR-4
metric name: GI50
result: > 100 µM (inactive)
//
molecule: O=C(Cn1ccnc1[N+](=O)[O-])c1ccccc1
target or test system: OVCAR-4
metric name: GI50
result: > 100 µM (inactive)
//
molecule: COc1ccc(-c2cc(-c3ccc(Nc4ccnc5cc(Cl)ccc45)cc3)[nH]c(=O)c2C#N)c2ccccc12
target or test system: OVCAR-4
metric name: GI50
result: 1.79 µM (inactive)

[Q] # GI50 lookup, item CCC(/C(=N\Nc1c(Cl)cc(Cl)cc1Cl)c1ccccc1)n1ccnc1C (stereo unspecified)
[A] 10.5 µM (inactive)

[Q] What do you have for CCSCCCSCCSCC ?
[A] 81.5 µM (inactive)

[Q] What do you have for COc1ccc(Nc2nc3c(N)cc(C(F)(F)F)cc3nc2-c2ccccc2)cc1OC ?
[A] 11.9 µM (inactive)

[Q] What do you have for Cc1n[nH]c(=O)n1/N=C/c1c[nH]c2ccccc12 ?
[A] > 100 µM (inactive)

[Q] What do you have for CCCCC(=O)Nc1ccc2cc(C(=O)OC)c(Cl)nc2n1 ?
[A] > 100 µM (inactive)

---

# Tested on: TK-10
# experimental protocol: NCI tumour cell line growth inhibition, 48 h
The source made the active and inactive calls. Rule as the data show it: active = GI50 up to about 1.1 µM and inactive = higher.
metric name: GI50

molecule: CN1CCN(c2ccc(-n3cc(C(=O)O)c(=O)c4cc(F)c(N5CCN(C)CC5)cc43)nc2)CC1
result: > 100 µM (inactive)

[Q] Request - read-out GI50 | tested on TK-10 | molecule c1ccc(C(c2ccccc2)c2cccnc2)cc1
[A] > 100 µM (inactive)

[Q] What do you have for CO/N=C1\CC(NC(=O)C(F)(F)F)c2ccsc21 (stereo unspecified) ?
[A] > 100 µM (inactive)

[Q] What do you have for O=C1/C(=C/c2cccc3ccccc23)Cc2ccccc21 ?
[A] 49.2 µM (inactive)

[Q] What do you have for CCCCC(=O)Nc1ccc2cc(C(=O)OC)c(Cl)nc2n1 ?
[A] > 71.3 µM (inactive)

[Q] What do you have for COc1c(C)c2c(c3c1c(=O)c1ccccc1n3C)C=CC(C)(C)O2 ?
[A] 48.3 µM (inactive)

---

# Tested on: ACHN
# experimental protocol: NCI tumour cell line growth inhibition, 48 h
Calls of active or inactive are those of the source. Rule as the data show it: active = GI50 up to about 1.1 µM and inactive = higher.
// GI50 lookup, one value per entry

compound: OC(Cc1cnnc2ccccc12)C(Cl)(Cl)Cl (configuration not stated)
GI50: > 10 µM (inactive)

compound: COC(=O)[C@]1(C)CCC[C@@]2(C)C1CC[C@@]13C=C(C(C)C)[C@@H](CC1=O)CC23 (some centres not stated)
GI50: 18.6 µM (inactive)

[Q] # GI50 lookup, item CCCCCCCCCCCCCP(=O)(O)O
[A] > 100 µM (inactive)

[Q] What do you have for OC(C/C=N/Nc1ccccc1)(C(F)(F)Cl)C(F)(F)Cl ?
[A] 4.49 µM (inactive)

[Q] What do you have for CC1=N/C(=C\c2ccc(/C=C3/N=C(C)OC3=O)cc2)C(=O)O1 ?
[A] > 100 µM (inactive)

[Q] What do you have for Cc1cc(C)n(CC(Cn2nc(C)cc2C)=C(/C(Cl)=C(/Cl)Nc2ccc([N+](=O)[O-])cc2)[N+](=O)[O-])n1 ?
[A] 3.25 µM (inactive)

---

# Test system: A549
# experimental protocol: NCI tumour cell line growth inhibition, 48 h
Where a name gives a salt, the structure may show the parent alone. Activity calls are given as the source filed them. Rule as the data show it: active = GI50 up to about 1.1 µM and inactive = higher.
Select the matching outcome among active, inactive

Some solved cases for reference:
molecule: COc1ccc(/C(=C\c2cc(OC)c(OC)c(OC)c2)C(=O)O)cc1
assigned class: inactive

molecule: COc1cc([C@@H]2c3cc4c(cc3[C@@H](Nc3ccc([N+](=O)[O-])cc3C(=O)c3ccccc3)[C@H]3COC(=O)[C@H]23)OCO4)cc(OC)c1OC
assigned class: active

molecule: COC(=O)C(=O)C(C(=O)C(=O)Nc1cc(Cl)c(Cl)cc1Cl)c1nc2ccc([N+](=O)[O-])cc2nc1O (centres undefined)
assigned class: inactive

[Q] Please state the recorded outcome for this molecule: OC(CNc1ccccn1)c1ccccc1 (centres undefined) [PHENYRAMIDOL HYDROCHLORIDE]
[A] inactive

---

# Test system: SK-OV-3
# experimental protocol: NCI tumour cell line growth inhibition, 48 h
Activity calls are given as the source filed them. Cut-off read from the data, not from the text of the source: active = GI50 up to about 1.1 µM and inactive = higher.
// GI50 lookup, one value per entry

compound: O=[N+]([O-])c1ccc(/C=N/n2c(CO)nc3ccccc32)o1
target or test system: SK-OV-3
result: 18.2 µM (inactive)
//
compound: O=C(CCc1cc(-c2ccc(F)cc2)n[nH]1)N(Cc1ccccc1)Cc1ccccc1
target or test system: SK-OV-3
result: > 100 µM (inactive)
//
compound: CCCC1NC(C#N)(C#N)C(CCC)NC1(C#N)C#N (centres undefined)
target or test system: SK-OV-3
result: 35.9 µM (inactive)
//
compound: OC1(C(Sc2cc(C(F)(F)F)cc(C(F)(F)F)c2)Sc2cc(C(F)(F)F)cc(C(F)(F)F)c2)C=CCCC1 (centres undefined)
target or test system: SK-OV-3
result: 2.67 µM (inactive)
//
compound: COC(=O)c1c2cccccc-2c(Cc2c3cccccc-3c(C(=O)OC)c2O)c1O
target or test system: SK-OV-3
result: > 100 µM (inactive)

[Q] # GI50 lookup, item CCOC(=O)C1=C(C)NC(=O)NC1c1coc2cc(C)cc(C)c2c1=O (centres undefined)
[A] > 66.5 µM (inactive)

---

# Tested on: MDA-N
# experimental protocol: NCI tumour cell line growth inhibition, 48 h
Calls of active or inactive are those of the source. Cut-off read from the data, not from the text of the source: active = GI50 up to about 1.1 µM and inactive = higher.
Select the matching outcome among 1 for active, -1 for inactive

compound: COc1ccc(C(=O)O[C@@H]2CCN3CC[C@H](C)[C@H]23)cc1
assigned class: -1
//
compound: COC(=O)c1cc2ccc(N)nc2[nH]c1=O
assigned class: -1
//
compound: O=C(O)c1ccccc1Sc1ccccc1[N+](=O)[O-]
assigned class: -1
//
compound: OC(C/C=N/Nc1ccccc1)(C(F)(F)Cl)C(F)(F)Cl
assigned class: -1
//
compound: Cc1ccc2c(c1)CC1(Cc3ccccc3C1=O)C2=O (stereo not given)
assigned class: -1
//
compound: O=NC1c2cccc3cccc(c23)C1N=O (stereo not given)
assigned class: -1
//
compound: O=CNC(Cc1c[nH]cn1)C(=O)O (stereo not given)
assigned class: -1
//
compound: Nc1nc(N)c2cc(-c3ccccc3)cnc2n1
assigned class: -1
//
compound: COC(=O)C1(C(=O)OC)CC2=C(S(=O)(=O)c3ccccc3)C[C@@H](C#N)[C@H]2C1
assigned class: -1
//
compound: Cc1cc2nc(O)c(C(C)C(=O)c3ccc(Cl)cc3)nc2cc1C (stereo not given)
assigned class: -1

[Q] Please state the recorded outcome for this compound: O=C(O)c1cc2c(cc1CC(Cc1ccc3c(c1)CCCC3)C(=O)O)CCCC2 (stereo not given)
[A] -1

[Q] What do you have for CC1=C(/C=C/C(C)=C/C=C/C(C)=C/C(=O)OCC2OC(n3cc(F)c(=O)[nH]c3=O)CC2OC(=O)/C=C(C)/C=C/C=C(C)/C=C/C2=C(C)CCCC2(C)C)C(C)(C)CCC1 (stereo not given) ?
[A] -1

[Q] What do you have for CCN1CCN(c2nc3ccccc3nc2C(=O)c2ccc(OC)cc2)CC1 ?
[A] -1

[Q] What do you have for COc1cc(OC)c2nc(C)c(CCCl)c(Cl)c2c1 ?
[A] -1

[Q] What do you have for Nc1c2c(nc3ccccc13)CCCc1ccccc1-2 ?
[A] -1

[Q] What do you have for COC(=O)c1ccccc1CC1Cc2ccc3c(c2C1=O)CCCC3 (stereo not given) ?
[A] -1

[Q] What do you have for CCOC(=O)C1(F)S(=O)(=O)OCCOS1(=O)=O ?
[A] -1

---

# System: M14
# experimental protocol: NCI tumour cell line growth inhibition, 48 h
Calls of active or inactive are those of the source. Rule as the data show it: active = GI50 up to about 1.1 µM and inactive = higher.
Select the matching outcome among active, inactive

molecule: CCc1ccccc1/N=N/C(=O)NNc1ccccc1CC
target or test system: M14
assigned class: inactive
//
molecule: NNC(=S)N/N=C/C(=C/Nc1ccccc1)[N+](=O)[O-]
target or test system: M14
assigned class: inactive
//
molecule: Cc1ccc2c(c1)CC1(Cc3ccccc3C1=O)C2=O (stereo not given)
target or test system: M14
assigned class: inactive
//
molecule: CCOC(=O)C1=C(C)C2C3C(=O)NC(=O)C3C1(C)C1C(=O)NC(=O)C21 (stereo not given)
target or test system: M14
assigned class: inactive
//
molecule: Cc1ccc(S(=O)(=O)N/N=C/C(Br)=C(/Br)C(=O)O)cc1
target or test system: M14
assigned class: inactive
//
molecule: COc1cc2c3cc1Oc1cc(ccc1O)C[C@@H]1c4c(cc(OC)c(O)c4Oc4ccc(cc4)C[C@@H]3N(C)CC2)CC[N+]1(C)C
target or test system: M14
assigned class: inactive
//
molecule: Cc1cc(C)n(CC(Cn2nc(C)cc2C)=C(/C(Cl)=C(/Cl)Nc2ccc([N+](=O)[O-])cc2)[N+](=O)[O-])n1
target or test system: M14
assigned class: inactive
//
molecule: FC(F)(F)c1ccc2nc(Sc3ccc4ccccc4c3)cnc2c1
target or test system: M14
assigned class: inactive

[Q] Please state the recorded outcome for this molecule: Cn1cc2ccccc2c1-c1nc(F)nc(OCC(=O)[C@H]2CCC3[C@@H]4CCC5=CC(=O)CC[C@]5(C)C4[C@@H](O)C[C@@]32C)n1 (stereo not given in full)
[A] inactive

[Q] What do you have for CN(C)CCNC(=O)c1cccc(C(=O)Nc2ccccc2)c1[N+](=O)[O-] ?
[A] inactive

[Q] What do you have for NN ?
[A] inactive

[Q] What do you have for Cc1ccc2oc(=O)c3c(O)c4cccc(OC5OC(C)C6O[C@@H](c7ccccc7)OC6C5OC5OC(C)C(O)C(O)C5O)c4c4oc(=O)c1c2c34 (stereo not given in full) ?
[A] active

[Q] What do you have for S=c1[nH]c2ccc(Br)cc2c(=S)s1 ?
[A] inactive

[Q] What do you have for CN(NC(=O)/C(=C/C=C/c1ccccc1)NC(=O)c1ccccc1)C1=C(Cl)C(=O)[N+](c2ccccc2)=CC1 ?
[A] inactive

[Q] What do you have for O=C(/C=C/c1ccccc1)CCN1CCN(CCC(=O)/C=C/c2ccccc2)CC1 ?
[A] inactive
